AC50 overview
biological target: Paired box protein Pax-8 (Homo sapiens, UniProt Q06710); assay: inhibitors of PAX8-driven TPO luciferase reporter, dose response, RMG-I cells, cherry-pick (AID 687027); assay type: functional, cell-based;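 further: luciferase reporter driven by Pax8 target thyroperoxidase promoter measured by SteadyGlo luminescence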
Sequence (Q06710 whole entry): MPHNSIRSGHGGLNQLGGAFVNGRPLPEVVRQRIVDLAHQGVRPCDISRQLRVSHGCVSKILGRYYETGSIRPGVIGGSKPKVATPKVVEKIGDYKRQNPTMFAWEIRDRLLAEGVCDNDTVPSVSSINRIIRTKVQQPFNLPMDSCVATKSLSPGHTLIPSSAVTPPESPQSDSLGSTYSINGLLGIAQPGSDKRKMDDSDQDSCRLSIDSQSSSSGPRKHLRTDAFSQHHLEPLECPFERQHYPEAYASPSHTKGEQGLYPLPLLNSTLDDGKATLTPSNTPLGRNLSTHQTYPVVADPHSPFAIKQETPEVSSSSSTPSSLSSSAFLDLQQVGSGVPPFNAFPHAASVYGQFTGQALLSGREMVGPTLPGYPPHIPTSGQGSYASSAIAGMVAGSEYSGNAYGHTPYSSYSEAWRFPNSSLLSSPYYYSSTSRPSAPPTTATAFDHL
Calls of active or inactive are those of the source. How the calls were made is not given here.
recorded-metric: AC50

1) C[C@@H]1CN([C@@H](C)CO)S(=O)(=O)c2ccc(C#C[C@@H](C)O)cc2O[C@@H]1CN(C)Cc1ccc(-c2ccccc2)cc1; 12.3 µM (active)
2) Cc1nc2sc(C(c3ccco3)N3CCN(C(c4ccccc4)c4ccccc4)CC3)c(O)n2n1 (configuration not stated); 5.25 µM (active)
3) Cc1ccc(S(=O)(=O)Nc2ccc3c(c2)C(=O)N([C@H](C)CO)C[C@@H](C)[C@H](CN(C)Cc2ccc(C(F)(F)F)cc2)OCCCC[C@H](C)O3)cc1; 3.93 µM (active)
4) C[C@@H]1CN([C@H](C)CO)C(=O)c2cc(NC(=O)Nc3ccc(C(F)(F)F)cc3)ccc2O[C@@H](C)CCCCO[C@H]1CN(C)S(=O)(=O)c1ccc(Cl)cc1; 2.41 µM (active)
5) C[C@H](NC(=O)C[C@@H]1C[C@@H]2c3cc(NC(=O)Nc4ccc(C(F)(F)F)cc4)ccc3O[C@@H]2[C@@H](CO)O1)c1ccccc1; 13.2 µM (active)
6) CS(=O)(=O)N1C[C@@H]2N[C@H](C1)[C@@H]2c1ccc(-c2ccccc2)cc1; 4.42 µM (active)
7) C[C@H]1CCCCO[C@H](CN(C)Cc2ccc(C(F)(F)F)cc2)[C@@H](C)CN([C@@H](C)CO)C(=O)c2cc(NC(=O)Nc3ccc(F)cc3)ccc2O1; 10.6 µM (active)
